Data provenance is ChEMBL document CHEMBL2390929.

- Test system: SF-268
- Assay Comment: Cytotoxicity against human SF268 cells assessed as cell growth at 10^-5 M after 48 hrs by SRB assay
- Type: functional
- Recorded Conditions: SF-268, 48 h, read-out: Activity
Endpoint Name: growth at 10 µM (%)
Numeric only. Scale: %

## Task Which growth at 10 µM value belongs to CCn1c(SC/C(=N/O)c2ccccc2)nnc1-c1ccc(OC)c(OC)c1 ?
## Result 101

## Task Which growth at 10 µM value belongs to COc1ccc(-c2nnc(SC/C(=N/O)c3ccccc3)n2-c2ccccc2)cc1OC ?
## Result 110

## Task Which growth at 10 µM value belongs to CCn1c(SC/C(=N/O)c2ccccc2)nnc1-c1ccccc1 ?
## Result 108

## Task Which growth at 10 µM value belongs to COc1ccc(-c2nnc(SC/C(=N/O)c3ccccc3)n2-c2ccccc2)cc1 ?
## Result 117

## Task Which growth at 10 µM value belongs to COc1cc(-c2nnc(SC/C(=N/O)c3ccccc3)n2-c2ccccc2)cc(OC)c1OC ?
## Result 114

## Task Which growth at 10 µM value belongs to O/N=C(/CSc1nnc(-c2ccccc2)n1-c1ccccc1)c1ccccc1 ?
## Result 104

## Task Which growth at 10 µM value belongs to C=CCn1c(SC/C(=N\O)c2ccccc2)nnc1-c1ccc(OC)c(OC)c1 ?
## Result 105

====

- System: Rattus norvegicus
- Assay Comment: Antiinflammatory activity in albino rat assessed as inhibition of carrageenan-induced paw edema at 0.28 mmol/kg, po after 1 hr relative to control
- Assay type: functional
Please go through the items and note down their inhibition in vivo at 280 µmol/kg.
Numeric only. Scale: %

## Task Lab request: please report inhibition in vivo at 280 µmol/kg under test system Rattus norvegicus for COc1cc(-c2nnc(SC/C(=N/O)c3ccccc3)n2-c2ccccc2)cc(OC)c1OC
## Result 61

## Task Lab request: please report inhibition in vivo at 280 µmol/kg under test system Rattus norvegicus for COc1ccc(-c2nnc(SCC(=O)c3ccccc3)n2-c2ccccc2)cc1
## Result 52

## Task Lab request: please report inhibition in vivo at 280 µmol/kg under test system Rattus norvegicus for C=CCn1c(SCC(=O)c2ccccc2)nnc1-c1ccc(OC)cc1
## Result 49

## Task Lab request: please report inhibition in vivo at 280 µmol/kg under test system Rattus norvegicus for CCn1c(SCC(=O)c2ccccc2)nnc1-c1ccc(OC)cc1
## Result 53

## Task Lab request: please report inhibition in vivo at 280 µmol/kg under test system Rattus norvegicus for C=CCn1c(SC/C(=N\O)c2ccccc2)nnc1-c1ccccc1
## Result 58

## Task Lab request: please report inhibition in vivo at 280 µmol/kg under test system Rattus norvegicus for CCn1c(SCC(=O)c2ccccc2)nnc1-c1ccccc1
## Result 52

## Task Lab request: please report inhibition in vivo at 280 µmol/kg under test system Rattus norvegicus for C=CCn1c(SC/C(=N/O)c2ccccc2)nnc1-c1ccc(OC)cc1
## Result 61

## Task Lab request: please report inhibition in vivo at 280 µmol/kg under test system Rattus norvegicus for C=CCn1c(SCC(=O)c2ccccc2)nnc1-c1cc(OC)c(OC)c(OC)c1
## Result 49

## Task Lab request: please report inhibition in vivo at 280 µmol/kg under test system Rattus norvegicus for CCn1c(SC/C(=N/O)c2ccccc2)nnc1-c1ccc(OC)cc1
## Result 69

## Task Lab request: please report inhibition in vivo at 280 µmol/kg under test system Rattus norvegicus for O=C(CSc1nnc(-c2ccccc2)n1-c1ccccc1)c1ccccc1
## Result 53

## Task Lab request: please report inhibition in vivo at 280 µmol/kg under test system Rattus norvegicus for COc1cc(-c2nnc(SCC(=O)c3ccccc3)n2-c2ccccc2)cc(OC)c1OC
## Result 44

## Task Lab request: please report inhibition in vivo at 280 µmol/kg under test system Rattus norvegicus for CCn1c(SCC(=O)c2ccccc2)nnc1-c1cc(OC)c(OC)c(OC)c1
## Result 29

## Task Lab request: please report inhibition in vivo at 280 µmol/kg under test system Rattus norvegicus for CCn1c(SC/C(=N/O)c2ccccc2)nnc1-c1cc(OC)c(OC)c(OC)c1
## Result 63

## Task Lab request: please report inhibition in vivo at 280 µmol/kg under test system Rattus norvegicus for O/N=C(/CSc1nnc(-c2ccccc2)n1-c1ccccc1)c1ccccc1
## Result 60

## Task Lab request: please report inhibition in vivo at 280 µmol/kg under test system Rattus norvegicus for CCn1c(SC/C(=N/O)c2ccccc2)nnc1-c1ccc(OC)c(OC)c1
## Result 61

## Task Lab request: please report inhibition in vivo at 280 µmol/kg under test system Rattus norvegicus for COc1ccc2c(c1)c(CC(=O)O)c(C)n2C(=O)c1ccc(Cl)cc1 [INDOMETHACIN]
## Result 51

## Task Lab request: please report inhibition in vivo at 280 µmol/kg under test system Rattus norvegicus for C=CCn1c(SCC(=O)c2ccccc2)nnc1-c1ccccc1
## Result 43

## Task Lab request: please report inhibition in vivo at 280 µmol/kg under test system Rattus norvegicus for COc1ccc(-c2nnc(SC/C(=N/O)c3ccccc3)n2-c2ccccc2)cc1OC
## Result 55

## Task Lab request: please report inhibition in vivo at 280 µmol/kg under test system Rattus norvegicus for CCn1c(SCC(=O)c2ccccc2)nnc1-c1ccc(OC)c(OC)c1
## Result 42

## Task Lab request: please report inhibition in vivo at 280 µmol/kg under test system Rattus norvegicus for C=CCn1c(SC/C(=N\O)c2ccccc2)nnc1-c1ccc(OC)c(OC)c1
## Result 53

## Task Lab request: please report inhibition in vivo at 280 µmol/kg under test system Rattus norvegicus for COc1ccc(-c2nnc(SC/C(=N/O)c3ccccc3)n2-c2ccccc2)cc1
## Result 58

## Task Lab request: please report inhibition in vivo at 280 µmol/kg under test system Rattus norvegicus for COc1ccc(-c2nnc(SCC(=O)c3ccccc3)n2-c2ccccc2)cc1OC
## Result 56

====

Please go through the items and note down their growth at 10 µM.
- Test system: MDA-MB-435
- Assay Comment: Cytotoxicity against human MDA-MB-435 cells assessed as cell growth at 10^-5 M after 48 hrs by SRB assay
- Type: functional
- Recorded Conditions: MDA-MB-435, 48 h, read-out: Activity
Numeric only. Scale: %

## Task Which growth at 10 µM value belongs to COc1ccc(-c2nnc(SC/C(=N/O)c3ccccc3)n2-c2ccccc2)cc1OC ?
## Result 109

## Task Which growth at 10 µM value belongs to O/N=C(/CSc1nnc(-c2ccccc2)n1-c1ccccc1)c1ccccc1 ?
## Result 97.5

## Task Which growth at 10 µM value belongs to CCn1c(SC/C(=N/O)c2ccccc2)nnc1-c1ccc(OC)c(OC)c1 ?
## Result 116

## Task Which growth at 10 µM value belongs to C=CCn1c(SC/C(=N\O)c2ccccc2)nnc1-c1ccc(OC)c(OC)c1 ?
## Result 105

## Task Which growth at 10 µM value belongs to COc1ccc(-c2nnc(SC/C(=N/O)c3ccccc3)n2-c2ccccc2)cc1 ?
## Result 102

## Task Which growth at 10 µM value belongs to COc1cc(-c2nnc(SC/C(=N/O)c3ccccc3)n2-c2ccccc2)cc(OC)c1OC ?
## Result 104

## Task Which growth at 10 µM value belongs to CCn1c(SC/C(=N/O)c2ccccc2)nnc1-c1ccccc1 ?
## Result 105

====

- Assay Comment: Induction of nitric oxide release in phosphate buffer at pH 7.4 at 0.1 mM after 6 hrs by Griess method in presence of 0.5 mM of N-acetylcysteine
- Format: physicochemical
- Recorded Conditions: pH 7.4, 6 h, 100 µM
Endpoint Name: Activity
Don't forget the unit after the number, please.

## Task Which Activity value belongs to COc1ccc(-c2nnc(SC/C(=N/O)c3ccccc3)n2-c2ccccc2)cc1OC ?
## Result 0.17 mol/mol

## Task Which Activity value belongs to COc1cc(-c2nnc(SC/C(=N/O)c3ccccc3)n2-c2ccccc2)cc(OC)c1OC ?
## Result 0.15 mol/mol

## Task Which Activity value belongs to C=CCn1c(SC/C(=N\O)c2ccccc2)nnc1-c1ccc(OC)c(OC)c1 ?
## Result 0.13 mol/mol

## Task Which Activity value belongs to CCn1c(SC/C(=N/O)c2ccccc2)nnc1-c1ccc(OC)cc1 ?
## Result 0.12 mol/mol

## Task Which Activity value belongs to CCn1c(SC/C(=N/O)c2ccccc2)nnc1-c1ccccc1 ?
## Result 0.13 mol/mol

====

- Tested on: BT-549
- Assay Comment: Cytotoxicity against human BT549 cells assessed as cell growth at 10^-5 M after 48 hrs by SRB assay
- Type: functional
- Recorded Conditions: BT-549, 48 h, read-out: Activity
If the reported growth at 10 µM equals or exceeds 90%, assign fulfilled. If not, assign not fulfilled.

## Task Has C=CCn1c(SC/C(=N\O)c2ccccc2)nnc1-c1ccc(OC)c(OC)c1 a recorded growth at 10 µM greater than or equal to 90%?
## Result fulfilled

## Task Has O/N=C(/CSc1nnc(-c2ccccc2)n1-c1ccccc1)c1ccccc1 a recorded growth at 10 µM greater than or equal to 90%?
## Result fulfilled

## Task Has CCn1c(SC/C(=N/O)c2ccccc2)nnc1-c1ccc(OC)c(OC)c1 a recorded growth at 10 µM greater than or equal to 90%?
## Result fulfilled

## Task Has CCn1c(SC/C(=N/O)c2ccccc2)nnc1-c1ccccc1 a recorded growth at 10 µM greater than or equal to 90%?
## Result fulfilled

## Task Has COc1cc(-c2nnc(SC/C(=N/O)c3ccccc3)n2-c2ccccc2)cc(OC)c1OC a recorded growth at 10 µM greater than or equal to 90%?
## Result not fulfilled
